molecular target: Human VPS34 (Homo sapiens (Human), UniProt Q8NEB9); assay: Human VPS34 enzyme assay (Adapta TR-FRET); format: biochemical; conditions: compound concentration 1.11 μM; read-out: Percent Inhibition
Sequence (Q8NEB9 whole entry): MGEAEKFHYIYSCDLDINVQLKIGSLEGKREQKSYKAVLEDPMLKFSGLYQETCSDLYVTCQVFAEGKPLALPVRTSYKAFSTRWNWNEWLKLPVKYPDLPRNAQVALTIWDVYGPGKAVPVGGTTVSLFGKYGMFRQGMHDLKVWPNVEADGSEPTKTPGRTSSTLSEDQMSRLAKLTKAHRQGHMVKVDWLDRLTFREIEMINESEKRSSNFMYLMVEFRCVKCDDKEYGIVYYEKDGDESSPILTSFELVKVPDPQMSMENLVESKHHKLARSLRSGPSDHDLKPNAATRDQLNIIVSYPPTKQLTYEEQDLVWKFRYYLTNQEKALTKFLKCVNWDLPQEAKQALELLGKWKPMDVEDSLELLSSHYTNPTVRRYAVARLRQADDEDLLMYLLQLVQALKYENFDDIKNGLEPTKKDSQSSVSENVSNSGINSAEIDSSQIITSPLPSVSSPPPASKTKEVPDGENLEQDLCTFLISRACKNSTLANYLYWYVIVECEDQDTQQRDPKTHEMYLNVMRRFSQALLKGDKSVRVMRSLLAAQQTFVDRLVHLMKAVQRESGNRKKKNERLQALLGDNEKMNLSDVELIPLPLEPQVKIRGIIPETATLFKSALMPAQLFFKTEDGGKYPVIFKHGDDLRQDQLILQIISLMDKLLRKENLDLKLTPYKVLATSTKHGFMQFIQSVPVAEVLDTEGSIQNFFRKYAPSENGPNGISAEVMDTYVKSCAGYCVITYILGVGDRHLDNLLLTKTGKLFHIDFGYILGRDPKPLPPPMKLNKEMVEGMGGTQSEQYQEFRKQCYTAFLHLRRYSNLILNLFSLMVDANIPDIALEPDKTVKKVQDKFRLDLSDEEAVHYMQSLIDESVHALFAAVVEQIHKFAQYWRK
Reported Metric: inhibition at 1.11 µM

Look up inhibition at 1.11 µM of CC(=O)Nc1cc(-c2cnc(C)c(NS(=O)(=O)c3ccc(C)cc3)c2)ccn1 and report it. > 99%

Return the recorded inhibition at 1.11 µM value; entry: CC(=O)Nc1cc(-c2cc(S(C)(=O)=O)c[n+]([O-])c2)ccn1 77%

Kindly indicate its recorded inhibition at 1.11 µM. Item: CC(=O)Nc1cc(-c2cnc(C)c(NS(=O)(=O)c3ccccc3C(F)(F)F)c2)ccn1 > 99%

Determine from records and report inhibition at 1.11 µM for CNc1ncc(-c2ccnc(NC(C)=O)c2)cc1N(C)S(C)(=O)=O > 99%

Consider the molecule CC(=O)Nc1cc(-c2cnc(C)c(NS(=O)(=O)c3cccc(C(F)(F)F)c3)c2)ccn1 and give its recorded inhibition at 1.11 µM. > 99%

---

target: Human VPS34 (Homo sapiens (Human), UniProt Q8NEB9); assay: Human VPS34 enzyme assay (Adapta TR-FRET); type: biochemical; conditions: compound concentration 1.11 μM; read-out: Percent Inhibition
Give measured inhibition at 1.11 µM for each item. Keep answers brief.

Identify measured inhibition at 1.11 µM associated with CNc1ncc(-c2ccnc(NC(C)=O)c2)cc1N(CC1CC1)S(C)(=O)=O [Compound I-141] > 99%

Output measured inhibition at 1.11 µM for this item: CC(=O)Nc1cc(-c2cnc(Cl)c(S(=O)(=O)NC3CCC3)c2)ccn1 [Compound I-438] > 99%

Return value of inhibition at 1.11 µM for input Cc1nccc(Nc2cc(-c3cnc(C)c(OCc4ccccc4)c3)ccn2)n1 [Compound I-363] , no commentary. 83%

Let me know recorded inhibition at 1.11 µM for CC(=O)Nc1cc(-c2cncc(S(=O)(=O)N(C)C)c2)ccn1 [Compound I-137] , thanks. > 99%

Give reported inhibition at 1.11 µM value for CCOC(=O)Nc1cc(-c2cnc(C)c(NS(=O)(=O)c3ccc(F)cc3F)c2)ccn1 [Compound I-389] 95%

Please give measured inhibition at 1.11 µM of the following entry: Cc1nccc(Nc2cc(-c3cnc(Cl)c(NS(=O)(=O)N(C)C)c3C)ccn2)n1 [Compound I-381] > 99%

Given the molecule CC(=O)Nc1cc(-c2cnc(N)c(S(=O)(=O)Nc3ccccc3)c2)ccn1 [Compound I-43] , write its reported inhibition at 1.11 µM. > 99%

Check the records and state inhibition at 1.11 µM for CC(=O)Nc1cc(-c2cnc(N)c(S(=O)(=O)Nc3ccc(F)cc3F)c2)ccn1 [Compound I-170] > 99%

Kindly indicate its recorded inhibition at 1.11 µM. Item: CC(=O)Nc1cc(-c2cnc(C)c(N3CCCNC3=O)c2)ccn1 [Compound I-460] 60%

Please report the measured inhibition at 1.11 µM for CC(=O)Nc1cc(-c2cnc(C)c(NS(=O)(=O)c3ccc(F)cc3F)c2)c(F)cn1 [Compound I-161] > 99%

Specify reported inhibition at 1.11 µM for the molecule shown: CC(=O)Nc1cc(-c2cnc(N)c(S(N)(=O)=O)c2)ccn1 [Compound I-61] 95%

---

Give inhibition at 1.11 µM for every item shown.
biological target: Human VPS34 (Homo sapiens (Human), UniProt Q8NEB9); assay: Human VPS34 enzyme assay (Adapta TR-FRET); type: biochemical; conditions: compound concentration 1.11 μM; read-out: Percent Inhibition

Using known records, supply inhibition at 1.11 µM for Cc1ccnc(Nc2cc(-c3cnc(Cl)c(NS(=O)(=O)c4ccc(F)cc4F)c3C)ccn2)n1 > 99%

Annotate the compound CC(=O)Nc1cc(-c2cnc(C)c(S(=O)(=O)NC34CC(C3)C4)c2)ccn1 with its measured inhibition at 1.11 µM. > 99%

Consider the compound CC(=O)Nc1cc(-c2cnc(N)c(C(=O)Nc3cccnc3)c2)ccn1 . State its measured inhibition at 1.11 µM. > 99%

Return reported inhibition at 1.11 µM. Input compound: CC(=O)Nc1cc(-c2cnc(N(C)C)c(C(=O)Nc3ccc(F)cc3F)c2)ccn1 > 99%

Entry Cc1nccc(Nc2cc(-c3cnc(C)c(Oc4ccccc4)c3)ccn2)n1 needs its inhibition at 1.11 µM filled in; supply it. > 99%

Supply recorded inhibition at 1.11 µM for CC(=O)Nc1cc(-c2cnc(N)c(C(=O)NC34CC(C3)C4)c2)ccn1 here. > 99%

Return reported inhibition at 1.11 µM. Input compound: CC(=O)Nc1cc(-c2cnc(N)c(S(=O)(=O)N(C)CC3CC3)c2)ccn1 > 99%

Given the compound Cc1nccc(Nc2cc(-c3cnc(N(C)C)c(C(=O)N(C)C45CC(C4)C5)c3)ccn2)n1 , write its reported inhibition at 1.11 µM. > 99%
